Tested on: Mus musculus
ASSAY INFO: Toxicity in ip dosed C3H X DBA2 F1 hybrid mouse […] with mouse L1210 cells on day 0 and dosed once daily on days 1 to 5 measured after 50 days
Type: organism-based
CONDITIONS: in vivo, 1200 h
One threshold, 20 mg/kg, splits the recorded LD10 values: lower ones are rule met, equal or higher ones are rule not met.

See these solved cases before continuing.
SMILES REPR	STUDY SYSTEM	GROUP LABEL
CCCC[n+]1cccc2cc(NC(=O)c3ccc(C(=O)Nc4ccc5c(ccc[n+]5CCCC)c4)c(N)c3)ccc21.Cc1ccc(S(=O)(=O)[O-])cc1.Cc1ccc(S(=O)(=O)[O-])cc1	Mus musculus	rule met
Cc1ccc(S(=O)(=O)[O-])cc1.Cc1ccc(S(=O)(=O)[O-])cc1.Cc1ccc2c(c1)c(Nc1ccc(C(=O)Nc3ccc(Nc4cc[n+](C)cc4)cc3)cc1)cc[n+]2C	Mus musculus	rule met
CC[n+]1cccc2ccc(NC(=O)c3ccc(NC(=O)c4ccc(C(=O)Nc5ccc6ccc[n+](CC)c6c5)cc4)cc3)cc21.Cc1ccc(S(=O)(=O)[O-])cc1.Cc1ccc(S(=O)(=O)[O-])cc1	Mus musculus	rule not met
C[n+]1cccc(NC(=O)c2ccc(NC(=O)c3cccc(C(=O)Nc4ccc(C(=O)Nc5ccc[n+](C)c5)cc4)c3)cc2)c1.Cc1ccc(S(=O)(=O)[O-])cc1.Cc1ccc(S(=O)(=O)[O-])cc1	Mus musculus	rule not met
C[n+]1ccccc1-c1ccc(NC(=O)c2ccc(C(=O)Nc3ccc(-c4cccc[n+]4C)cc3)cc2)cc1.Cc1ccc(S(=O)(=O)[O-])cc1.Cc1ccc(S(=O)(=O)[O-])cc1	Mus musculus	rule met
Br.C/C(=N\NC(=N)N)c1ccc(NC(=O)c2ccc(Nc3cc[n+](C)c4ccc(N)cc34)cc2N)cc1.[Br-]	Mus musculus	rule not met

# check: LD10 < 20 mg/kg for `CCC[n+]1ccc(Nc2ccc(NC(=O)c3ccc(Nc4cc[n+](CCC)c5ccccc45)cc3)cc2N)cc1.[I-].[I-]`
rule met

# check: LD10 < 20 mg/kg for `CC[n+]1ccc(Nc2ccc(NC(=O)c3ccc(Nc4cc[n+](CC)c5ccc(N)cc45)cc3N)cc2)cc1.[I-].[I-]`
rule met

# check: LD10 < 20 mg/kg for `CC[n+]1cccc2cc(NC(=O)c3ccc(-c4ccc(-c5ccc(-c6ccc(C(=O)Nc7ccc8c(ccc[n+]8CC)c7)cc6)cc5)cc4)cc3)ccc21.Cc1ccc(S(=O)(=O)[O-])cc1.Cc1ccc(S(=O)(=O)[O-])cc1`
rule not met

# check: LD10 < 20 mg/kg for `C[n+]1cccc(NC(=O)c2ccc(NC(=O)c3ccc(C(=O)Nc4ccc(C(=O)Nc5ccc[n+](C)c5)cc4Cl)cc3)c(Cl)c2)c1.Cc1ccc(S(=O)(=O)[O-])cc1.Cc1ccc(S(=O)(=O)[O-])cc1`
rule not met

---

Species on record: Bos taurus
ASSAY INFO: Displacement of ethidium from calf thymus DNA by fluorimetric method
REPORTED METRIC: C50 (µM)
Expressed in µM, but write only the number.

SMILES REPR	UNIT ANNOTATION	C50
CCC[n+]1cccc(NC(=O)c2ccc(NC(=O)c3ccc(C(=O)Nc4ccc(C(=O)Nc5ccc[n+](CCC)c5)cc4)cc3)cc2)c1.Cc1ccc(S(=O)(=O)[O-])cc1.Cc1ccc(S(=O)(=O)[O-])cc1	µM	0.44
C[n+]1ccc(Nc2ccc(NC(=O)Nc3ccc(Nc4cc[n+](C)c5ccc(N)cc45)cc3)cc2)cc1.Cc1ccc(S(=O)(=O)[O-])cc1.Cc1ccc(S(=O)(=O)[O-])cc1	µM	0.51

Next up:
Could you please provide reported C50 for `C/C(=N\NC(=N)N)c1ccc(NC(=O)c2ccc(Nc3cc[n+](C)c4cc([N+](=O)[O-])ccc34)cc2)cc1.Cl.[Cl-]` ? Thanks!
0.2
